This collection of values is drawn from paper PMC5540273.

Tested on: FAK
Construct: gene PTK2
Conditions: concentration: 1 μM, replicates: in singlicate; n = 1;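 note: KINOMEscan kinase panel screen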
Exercise: for every item that follows, state its recorded %Inh.
Give bare numbers, in %.

Consider the worked cases shown below.
- Compound: "COc1cc(Nc2nccc(N3CCC(NS(=O)(=O)c4ccc(NC(C)=O)cc4)CC3)n2)cc(OC)c1OC"
  Unit Annotation: "%"
  %Inh: 0
- Compound: "COc1cc(Nc2ccnc3cc(-c4ccncc4)ccc23)cc(OC)c1OC.Cl"
  Unit Annotation: "%"
  %Inh: 0
- Compound: "CC(C)(C)c1ccc(C(=O)Nc2cn3cc(-n4ccnc4)ccc3n2)cc1"
  Unit Annotation: "%"
  %Inh: 7

Hi team, please reply with %Inh for each item in this list.
1. Cl.Cl.NC(CNC(=O)c1cc(Br)c(-c2ccnc3[nH]ccc23)s1)c1ccccc1 (stereo not drawn)
2. Nc1ncnc2scc(-c3ccc(NC(=O)Cc4cc(F)ccc4F)cc3)c12.O=C(O)C(F)(F)F
3. COc1cccc(CC(=O)N2CCc3cc(-c4cn(C)c5ncnc(N)c45)ccc32)c1
4. Cc1nn2c(=O)cc(N3CCO[C@H](C)C3)nc2n1Cc1cccc(Cl)c1Cl
5. COc1cccc(C2=C(Nc3cccc(O)c3)C(=O)NC2=O)c1
6. Cc1cccc(Nc2nc(NCCN)ncc2C(N)=O)c1
7. Fc1cc(Cl)ccc1Nc1ccnc2cc(-c3ccc(CN4CCOCC4)o3)ccc12
8. Cc1ccc(O)cc1Nc1ccnc2ccc(C(C)(C)C)cc12

[83, 4, 8, 0, 0, 5, 0, 34]

Hi team, please reply with %Inh for each item in this list.
1. NCCC(NC(=O)c1cc(Br)c(-c2ccnc3[nH]ccc23)s1)c1ccccc1.O=C(O)C(F)(F)F.O=C(O)C(F)(F)F (stereo not drawn)
2. CNc1nccc(-c2ccc3c(N)n[nH]c3c2)n1

1: 9; 2: 0

Hi team, please reply with %Inh for each item in this list.
1. Nc1cccc(-c2ccc3c(N)n[nH]c3c2)c1
2. COC(=O)Nc1nc2cc(Oc3ccc(NC(=O)Nc4cccc(SC)c4)cc3)ccc2[nH]1.Cl

1. 16
2. 0

Hi team, please reply with %Inh for each item in this list.
1. Cc1ccc(O)cc1Nc1ccnc2cc(-c3ccc(CN4CCCCC4)o3)ccc12
2. CC(C)c1nc(-c2cccc(NS(=O)(=O)c3c(F)cccc3F)c2)c(-c2ccnc(Nc3ccc(N4CCOCC4)nc3)n2)s1.Cl
3. Fc1cc(Cl)ccc1Nc1ccnc2cc(-c3ccc(CN4CCSCC4)o3)ccc12
4. CN(c1ccc(NC(=O)Nc2cccc(Cl)c2)cc1)c1ccnc(N)n1.Cl
5. CCNc1nccc(-c2c(-c3ccc(F)cc3)ncn2C2CCN(C)CC2)n1
6. Cc1ccccc1CC(=O)N1CCc2cc(-c3cn(C)c4ncnc(N)c34)ccc21

1: 0; 2: 0; 3: 0; 4: 15; 5: 0; 6: 0

Hi team, please reply with %Inh for each item in this list.
1. CN(c1ccc2c(c1)nc(NCc1ccccc1)n2C)c1ccnc(Nc2ccc(CS(C)(=O)=O)cc2)n1.Cl
2. CCn1cnc2c(NCc3ccccc3)ncnc21
3. Cc1ccc(C)c(NC(=O)Nc2ccc(C)c(-c3ccc(C(=O)Nc4ccncc4)cc3)c2)c1

1. 23
2. 0
3. 0

Hi team, please reply with %Inh for each item in this list.
1. O=C(O)C(F)(F)F.O=c1[nH]ccc2nc(N[C@@H]3CCNC3)nc(Nc3ccc4c(c3)S(=O)(=O)CC4)c12
2. Nc1ncc(-c2ccc3nccc(-c4ccncc4)c3c2)cc1S(=O)(=O)N1CCCCC1

1. 84
2. 0

Hi team, please reply with %Inh for each item in this list.
1. CC(C)c1nc(-c2ccc(F)c(NS(=O)(=O)c3c(F)cccc3F)c2)c(-c2ccnc(Nc3ccc(N4CCOCC4)nc3)n2)s1
2. Cn1cc(-c2ccc3c(c2)CCN3C(=O)Cc2cc(F)cc(F)c2F)c2c(N)ncnc21
3. CCn1c(-c2nonc2N)nc2c(-c3ccccc3)ncc(OCCCN)c21.O=C(O)C(F)(F)F.O=C(O)C(F)(F)F
4. O=C(O)C(F)(F)F.O=c1[nH]ccc2nc(N[C@@H]3CCNC3)nc(Nc3cc(Cl)cc(Cl)c3)c12

1: 0; 2: 5; 3: 0; 4: 41

Hi team, please reply with %Inh for each item in this list.
1. Cc1cc(-c2c(-c3ccc(F)cc3)ncn2CCCN2CCOCC2)nc(N)n1
2. O=C(Nc1n[nH]c2nc(-c3ccccc3O)ccc12)C1CC1
3. CN(C)CCNS(=O)(=O)c1ccc(-c2ccnc3[nH]ccc23)cc1

0
0
0

###

Tested on: SBK1
Settings: concentration: 1 μM, replicates: in singlicate; n = 1
Readout Type: %Inh (%)
Give bare numbers, in %.

- Compound: "O=C(O)C(F)(F)F.O=c1[nH]ccc2nc(N[C@@H]3CCNC3)nc(Nc3ccc4c(c3)S(=O)(=O)CC4)c12"
  Readout Type: "%Inh"
  Unit Annotation: "%"
  Observed: 90.1
- Compound: "O=C(O)C(F)(F)F.O=c1[nH]ccc2nc(N[C@@H]3CCNC3)nc(Nc3cc(Cl)cc(Cl)c3)c12"
  Readout Type: "%Inh"
  Unit Annotation: "%"
  Observed: 91.5
- Compound: "CN1CCN(Cc2ccc(NC(=O)Nc3ccc(N(C)c4ccnc(Nc5ccc(CS(C)(=O)=O)cc5)n4)cc3)cc2)CC1.Cl"
  Readout Type: "%Inh"
  Unit Annotation: "%"
  Observed: 0
- Compound: "CC(C)c1nc(-c2cccc(NS(=O)(=O)c3c(F)cccc3F)c2)c(-c2ccnc(Nc3ccc(N4CCOCC4)nc3)n2)s1.Cl"
  Readout Type: "%Inh"
  Unit Annotation: "%"
  Observed: 20
- Compound: "O=C(Nc1n[nH]c2nc(-c3ccccc3)ccc12)C1CC1"
  Readout Type: "%Inh"
  Unit Annotation: "%"
  Observed: 9
- Compound: "Cc1nn2c(=O)cc(N3CCO[C@H](C)C3)nc2n1Cc1cccc(Cl)c1Cl"
  Readout Type: "%Inh"
  Unit Annotation: "%"
  Observed: 89

Hi team, please reply with %Inh for each item in this list.
1. COc1cc(Nc2nccc(N3CCC(NC(=O)Nc4ccc5c(c4)OCO5)C3)n2)cc(OC)c1OC (centres unmarked)
2. Cc1ccc(Nc2ccnc(Nc3ccc(C)c(F)c3)n2)cc1O.Cl

1. 10
2. 6

###

Tested on: CSNK1G3
Settings: concentration: 1 μM, replicates: in singlicate; n = 1
Readout Type: %Inh (%)
Give bare numbers, in %.

- Compound: "Nc1ncc(-c2cn[nH]c2)c2scc(-c3ccc4c(c3)CCN4C(=O)Cc3ccccc3)c12"
  Readout Type: "%Inh"
  Observed: 27
- Compound: "Cl.Cl.NCC(NC(=O)c1cc(-c2cccnc2)c(-c2ccnc3[nH]ccc23)s1)c1ccccc1 (stereo not drawn)"
  Readout Type: "%Inh"
  Observed: 68
- Compound: "Cc1cccc(Nc2nc(NCCN)ncc2C(N)=O)c1"
  Readout Type: "%Inh"
  Observed: 26
- Compound: "CC(=O)Nc1cn2nc(Oc3cccc(NC(=O)c4cccc(C(F)(F)F)c4)c3)ccc2n1"
  Readout Type: "%Inh"
  Observed: 41
- Compound: "CN(C)c1ncnc2nc[nH]c12"
  Readout Type: "%Inh"
  Observed: 0
- Compound: "Cc1cc(-c2c(-c3ccc(F)cc3)ncn2CCCN2CCOCC2)nc(N)n1"
  Readout Type: "%Inh"
  Observed: 0
- Compound: "O=C(Nc1n[nH]c2nc(-c3cccc(O)c3)ccc12)C1CC1"
  Readout Type: "%Inh"
  Observed: 25
- Compound: "Cc1ccc(NC(=O)c2ccnc(N3CCCCC3)c2)cc1-c1ccc(C(=O)NCC2CC2)cc1"
  Readout Type: "%Inh"
  Observed: 0

Hi team, please reply with %Inh for each item in this list.
1. N#Cc1cnc2cc(-c3cnc(CNCCN4CCOCC4)s3)ccc2c1Nc1ccc(Oc2ccccc2)cc1
2. CN(C)CCNS(=O)(=O)c1ccc(-c2ccnc3[nH]ccc23)cc1
3. Cc1ccc(O)cc1Nc1ccnc2cc(-c3ccc(CN4CCCCC4)o3)ccc12

1. 25
2. 5
3. 7

Give a short answer stating reported %Inh for CCn1c(-c2nonc2N)nc2c(-c3ccccc3)ncc(OCCCN)c21.O=C(O)C(F)(F)F.O=C(O)C(F)(F)F .
29

###

System: p38-gamma
Construct: gene MAPK12
Conditions: concentration: 1 μM, replicates: in singlicate; n = 1
Param threshold (4%) applies to %Inh; output T when value >= threshold, F when value < threshold.

- Smiles Input: "COc1cccc(-c2nc(-c3ccccc3)[nH]c2-c2ccncc2)c1"
  Target Or System: "p38-gamma"
  Group Label: "F"

Item N#CC1(c2cccc(C(=O)Nc3cccc(Oc4ccc5nc(NC(=O)C6CC6)sc5n4)c3)c2)CC1 with %Inh of 4% or above?
T

Item COc1cccc(NC(=O)NCCNc2ccnc(Nc3ccc(F)cc3)n2)c1 with %Inh of 4% or above?
F

Item O=C(O)C(F)(F)F.O=c1[nH]ccc2nc(N[C@@H]3CCNC3)nc(Nc3ccc4c(c3)S(=O)(=O)CC4)c12 with %Inh of 4% or above?
T

Item CC(C)c1nc(-c2ccc(F)c(NS(=O)(=O)c3c(F)cccc3F)c2)c(-c2ccnc(Nc3ccc(N4CCOCC4)nc3)n2)s1 with %Inh of 4% or above?
F
